Data credit: the supplement of paper PMC6555819

# System: PPARg DBDmut IVT, anti-PPARg (DBD mutation: PPARg1 K132A/R137A, NR concentration 270 nM)
# Assay notes: PBM binding z-score (relative to random genomic background probes); higher = stronger binding; sequences stand for … in GC…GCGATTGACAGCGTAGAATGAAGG
Listed sequences paired with reported PBM binding z-score
Note: the reply should be a number with no unit written.

// worked examples, PBM binding z-score included
>  <Sequence input>
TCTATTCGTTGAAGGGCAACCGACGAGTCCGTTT

>  <PBM binding z-score>
0.28

$$$$
>  <Sequence input>
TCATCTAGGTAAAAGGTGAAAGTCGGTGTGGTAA

>  <PBM binding z-score>
1.06

$$$$
>  <Sequence input>
ATCGAAAGGTCGAAGGTGAGTAAACCCACCCGAA

>  <PBM binding z-score>
0.487

$$$$
>  <Sequence input>
GCATATAGGTAATACAAGGTGTAAGTCCGATTGT

>  <PBM binding z-score>
0.908

$$$$
>  <Sequence input>
ATCTCTAGGTAAAAGTTCAGTGACTCCCGAGGAT

>  <PBM binding z-score>
1.46

$$$$

Record lookup: for PPARg DBDmut IVT, anti-PPARg (DBD mutation: PPARg1 K132A/R137A, NR concentration 270 nM), what PBM binding z-score belongs to `ATCGAAAGGTCGAGAGGTGAGTATACAGAAAGGC` ?
0.861

---

# Test system: THRa:RXRa (NR concentration 90 nM, RXRa partner concentration 90 nM)
# Assay notes: PBM binding z-score (relative to random genomic background probes); higher = stronger binding; sequences stand for … in GC…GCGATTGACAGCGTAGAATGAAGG
Label scheme for PBM binding z-score: lower than 2 is No, 2 and above is Yes.

>  <Sequence input>
GCTGCTAGGTCAGGTTGGTAAGCTAACGGGTACG

>  <Class name>
No

$$$$
>  <Sequence input>
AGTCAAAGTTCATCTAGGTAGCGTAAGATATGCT

>  <Class name>
Yes

$$$$
>  <Sequence input>
CAAACTAGTTCACGAAAGGTCAAAGTCGAATGAC

>  <Class name>
Yes

$$$$
>  <Sequence input>
AGAATGAGGTTATTAAGATCAGGGAATTGCGGTC

>  <Class name>
Yes

$$$$
>  <Sequence input>
CAGCCTAGGACAGGGCCAGTATAGGAGGAACGTT

>  <Class name>
No

$$$$

API: above_or_equal(metric=PBM binding z-score, cutoff=2) for item `GGAACGAGGGCATTCGAGTTGCTAGCATGGCGAT`
Yes

Try this sequence too: `GCTGCTTGGTCAACTGATGGTCAGCTAAAGCTCG`
No

Item: `CCAGACAGGTGAGAAGGTAACTCCGCCTCGATTA`
No

Now consider `CCGACTGGGGCATAAGGTTATCATAAGCCAGCCC` and answer again.
No

Subsequent entry: `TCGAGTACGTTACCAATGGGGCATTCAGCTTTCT`
No

Check `GTACCAAGGTAAATAGGTCGTTGATGAGTAGGCG` too.
No

// query: `ATCGAAAGGTCGTAGGTGAGTATACCCACCCGAA`
Yes

Lookup `AGAATGAGATTATTAAGATCAGGGAATTGCGGTC`
No

Again, but for `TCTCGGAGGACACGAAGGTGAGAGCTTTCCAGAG`
No

Another sequence to look at: `ACTATTAGTTCACTTAGGGCAACCGATACGACGC`
Yes
